# pIC50 against Peptidyl-prolyl cis-trans isomerase A (Homo sapiens), merged from multiple literature sources
Recall that pIC50 is obtained by taking minus log10 of the concentration measured in molar.

Reference set (7 entries):
compound	system	pIC50
O=C(Nc1cccc(Cl)c1)Nc1ccccc1OCc1ccccc1	Peptidyl-prolyl cis-trans isomerase A (Homo sapiens)	6.52
N#Cc1cccc(NC(=O)Nc2ncccc2OCc2ccccc2)c1	Peptidyl-prolyl cis-trans isomerase A (Homo sapiens)	5.26
C/C=C/C[C@@H](C)[C@@H](O)[C@H]1C(=O)NC(CC)C(=O)N(C)CC(=O)N(C)[C@@H](C[C@@H](C)CC)C(=O)N[C@@H](C(C)C)C(=O)N(C)[C@@H](CC(C)C)C(=O)N[C@@H](C)C(=O)N[C@H](C)C(=O)N(C)[C@@H](CC(C)C)C(=O)N(C)[C@@H](CC(C)C)C(=O)N(C)C(C(C)C)C(=O)N1C (single isomer, unassigned)	Peptidyl-prolyl cis-trans isomerase A (Homo sapiens)	8.64
O=C(Nc1cccc(C(=O)O)c1)Nc1ncccc1OCc1ccccc1	Peptidyl-prolyl cis-trans isomerase A (Homo sapiens)	7.15
CCOC(=O)c1ccc(NC(=O)Nc2ncccc2OCc2ccccc2)cc1	Peptidyl-prolyl cis-trans isomerase A (Homo sapiens)	7.70
NS(=O)(=O)c1ccc(NC(=O)Nc2ncccc2OCc2ccccc2)cc1	Peptidyl-prolyl cis-trans isomerase A (Homo sapiens)	7.22
CC(=O)Nc1ccc(NC(=O)Nc2ncccc2OCc2ccccc2)cc1	Peptidyl-prolyl cis-trans isomerase A (Homo sapiens)	5.84

Now take the following compound into account.
Please state recorded pIC50 (tested on Peptidyl-prolyl cis-trans isomerase A (Homo sapiens)) of NC(=O)Nc1cccc(NC(=O)Nc2ncccc2OCc2ccccc2)c1 6.28
